Quick reference for IC50 among some compounds
Biological target: CDK5/GST-p25 (Homo sapiens, UniProt Q00535)
Construct: The final construct, encoding for full-length human CDK5; made in house; host or cells: Sf21 insect cells (baculovirus co-infection)
Sequence (Q00535 whole entry): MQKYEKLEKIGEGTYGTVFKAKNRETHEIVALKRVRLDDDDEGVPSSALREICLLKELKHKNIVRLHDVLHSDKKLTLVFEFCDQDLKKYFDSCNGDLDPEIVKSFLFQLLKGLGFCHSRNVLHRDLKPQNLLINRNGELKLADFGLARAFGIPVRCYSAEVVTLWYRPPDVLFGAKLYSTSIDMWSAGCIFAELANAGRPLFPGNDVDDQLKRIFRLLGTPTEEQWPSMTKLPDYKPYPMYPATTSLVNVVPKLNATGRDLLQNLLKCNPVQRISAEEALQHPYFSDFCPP
Sequence (Q15078 108-307 partner limits assumed): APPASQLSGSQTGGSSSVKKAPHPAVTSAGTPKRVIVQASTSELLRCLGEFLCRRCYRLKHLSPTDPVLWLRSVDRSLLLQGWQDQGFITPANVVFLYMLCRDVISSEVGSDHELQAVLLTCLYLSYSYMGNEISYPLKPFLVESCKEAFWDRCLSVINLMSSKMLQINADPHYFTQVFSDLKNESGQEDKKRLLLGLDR
Test: Inhibition of CDK5/GST-p25 kinase activity (ELISA with time-resolved fluorescence readout)
Format: biochemical
Details: class symbols

compound	target.system	IC50
N#Cc1ccc2c(c1)C(c1nc(N3CCN(CCc4cccs4)CC3)nc3nn(C4CCCC4)cc13)C(=O)N2 (centres unmarked)	CDK5/GST-p25 (Homo sapiens, UniProt Q00535)	> 10000 nM
O=C1Nc2ccc(Cl)cc2C1c1nc(NCc2ccc(Cl)nc2)nc2c1CCC2 (centres unmarked)	CDK5/GST-p25 (Homo sapiens, UniProt Q00535)	> 10000 nM
CCOCCn1cc2c(C3C(=O)Nc4ccc(Cl)cc43)nc(Cl)nc2n1 (centres unmarked)	CDK5/GST-p25 (Homo sapiens, UniProt Q00535)	> 10000 nM
CC(C)Nc1nc(C2C(=O)Nc3ccc(C(F)(F)F)cc32)c2cn(C3CCCC3)nc2n1 (centres unmarked)	CDK5/GST-p25 (Homo sapiens, UniProt Q00535)	> 10000 nM
COCCn1cc2c(C3C(=O)Nc4ccc(Br)cc43)nc(NCCC3CCNCC3)nc2n1 (centres unmarked)	CDK5/GST-p25 (Homo sapiens, UniProt Q00535)	< 300 nM
CCCCCn1cc2c(C3C(=O)Nc4ccc(C#N)cc43)nc(NCc3ccncc3)nc2n1 (centres unmarked)	CDK5/GST-p25 (Homo sapiens, UniProt Q00535)	< 300 nM
N#Cc1ccc2c(c1)C(c1nc(NCc3ccccn3)nc3c1CCC3)C(=O)N2 (centres unmarked)	CDK5/GST-p25 (Homo sapiens, UniProt Q00535)	< 300 nM
O=C1Nc2ccc(Cl)cc2C1c1nc(NCc2ccccn2)nc2c1CCC2 (centres unmarked)	CDK5/GST-p25 (Homo sapiens, UniProt Q00535)	> 10000 nM
CN1CCN(c2ccc(Nc3nc(C4C(=O)Nc5ccc(C#N)cc54)c4cn(C5CCCC5)nc4n3)cn2)CC1 (centres unmarked)	CDK5/GST-p25 (Homo sapiens, UniProt Q00535)	> 10000 nM
O=C1Nc2ccc(Br)cc2C1c1ncnc2nn(C3CCCC3)cc12 (centres unmarked)	CDK5/GST-p25 (Homo sapiens, UniProt Q00535)	< 300 nM
N#Cc1ccc2c(c1)C(c1nc(N3CCOCC3)nc3nn(C4CCCC4)cc13)C(=O)N2 (centres unmarked)	CDK5/GST-p25 (Homo sapiens, UniProt Q00535)	300 to 3000 nM
N#Cc1ccc2c(c1)C(c1nc(NCc3ccc(C(F)(F)F)nc3)nc3nn(C4CCCC4)cc13)C(=O)N2 (centres unmarked)	CDK5/GST-p25 (Homo sapiens, UniProt Q00535)	< 300 nM
COc1ccc2c(c1)C(c1ncnc3nn(C4CCCCC4)cc13)C(=O)N2 (centres unmarked)	CDK5/GST-p25 (Homo sapiens, UniProt Q00535)	300 to 3000 nM
Cn1cc2c(C3C(=O)Nc4ccc(Cl)cc43)ncnc2n1 (centres unmarked)	CDK5/GST-p25 (Homo sapiens, UniProt Q00535)	< 300 nM
O=C1Nc2ccc(C(F)(F)F)cc2C1c1ncnc2c1cnn2C1CCCC1 (centres unmarked)	CDK5/GST-p25 (Homo sapiens, UniProt Q00535)	> 10000 nM
N#Cc1ccc2c(c1)C(c1nc(NCCN3CCOCC3)nc3nn(C4CCCC4)cc13)C(=O)N2 (centres unmarked)	CDK5/GST-p25 (Homo sapiens, UniProt Q00535)	< 300 nM
CCCn1cc2c(C3C(=O)Nc4ccc(Br)cc43)nc(NC[C@@H](O)CO)nc2n1 (some centres unmarked)	CDK5/GST-p25 (Homo sapiens, UniProt Q00535)	< 300 nM
